Origin of measurements: PubChem BioAssay

- procedureText: change in splice reporter luminescence, either direction, cell-based, HEK293, spliceosome inhibition project, primary screen (AID 1101);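 further: HEK293 cells carrying a splicing-competent luciferase reporter gene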
- measurementParameters: HEK293 splicing luciferase reporter, 24 h, higher = more signal, called active from +8 up or from −8 down
measurementName: z-score
Give bare numbers.

structureAsSmiles	measurementName	observed
N[C@@H](Cc1ccccc1)C(=O)NCc1cn(Cc2ccccc2)nn1	z-score	0.0702
C=CC[C@]1(C(=O)N2CCOCC2)COC(c2ccc(OCCCO)cc2)=N1	z-score	-0.612
CC(C)NC(=O)[C@@]1(C)c2ccccc2C(=O)N(Cc2ccc(OC(F)(F)F)cc2)[C@H]1c1ccc(CO)cc1	z-score	-1.08
COC(=O)C/C=C/C[C@]1(O)C(=O)N(C)c2ccccc21	z-score	-1.38

// below: z-score requested for another compound
Exercise: Kindly indicate its recorded z-score. Item: CCOC(=O)C1=CC[C@@H](c2ccccc2F)N(S(=O)(=O)c2ccc(C)cc2)[C@H]1c1ccccc1
Key: -1.12

====

- Test system: XIP peptide (Xip251-270)
- procedureText: compounds binding XIP fragment 251-270 – biochemical, small-molecule microarray, fluorescence 635/667 nm, 0.5 µg/mL protein, primary screen (AID 1183)
- measurementParameters: fluorescence 635 nm, higher = more signal
YES means recorded composite z-score is 0.6 or above; NO means it is below 0.6.

molecule	class
O=C1OCCC=C[C@H]2OC34C=CCN(Cn5nnc6ccccc65)C(=O)[C@H]3N(CCCO)C(=O)[C@@H]4C12 (some centres undefined)	NO
CC(C)[Si](C#C[Si](C(C)C)(C(C)C)C(C)C)(O[C@H](c1ccccc1)c1cn(Cc2ccccc2)nn1)C(C)C	NO
COc1ccc([Si](C)(C)[C@@H]2[C@@H](CC(=O)N(CCO)Cc3ccccc3)O[C@]3(C(=O)N(Cc4cccc(N5CCCCC5=O)c4)c4ccccc43)[C@H]2C)cc1	YES
COC(=O)[C@@]1(Cc2ccc(F)cc2)[C@H]2c3cc(C(=O)N4CCCC4)n(CCc4c[nH]c5ccccc45)c3C[C@H]2CN1C(=O)c1ccccc1	YES
CCOC(=O)C[C@H]1[C@H](OC(=O)c2ccc(C(=O)c3ccccc3)cc2)[C@@H](NC(=O)c2ccc(-c3ccccc3)cc2)c2cc(OCCCO)ccc2N1C(=O)Cc1ccc(OC)cc1	NO
C=C[C@H]1C(C(=O)OCC)=CC[C@@H](c2ccccc2)N1S(=O)(=O)c1ccc(C)cc1	YES
CCCC1(C(=O)OC)C=C2C(=C(C)C(=O)C2C)CN1 (centres undefined)	NO
CN(C)C(=O)[C@@]1(Cc2ccccc2CN=[N+]=[N-])N=C(c2ccc(OCCCO)cc2)O[C@H]1c1ccccc1N=[N+]=[N-]	YES

Exercise: Item CC(C)C(CO)N1C(=O)[C@@H]2C3C(=O)OCCC/C=C\[C@H]3OC23C=CCN(Cn2nnc4ccccc42)C(=O)[C@@H]13 (some centres undefined) with composite z-score of 0.6 or above?
Key: NO

Exercise: Could you verify whether the entry C#CCN(Cc1ccccc1Br)[C@H](/C=C/c1ccccc1)[C@@H](O)Cc1ccccc1 shows composite z-score of no less than 0.6?
Key: NO

Exercise: Given COCCOC(=O)N1C(=O)[C@@]2(c3cc(C#CC4(O)CCCCCC4)ccc31)[C@H](c1ccc(O)cc1)N1[C@H](c3ccccc3)[C@H](c3ccccc3)OC(=O)[C@H]1[C@@H]2C(=O)N1CCN(c2ncccn2)CC1 , state whether its composite z-score is at least 0.6.
Key: YES

Exercise: Textbook exercise: given the entry CCCC=C(CCC)[C@@H](NC(=O)C(C)(C)C)c1ccc(C(=O)OC)cc1 , state whether its composite z-score is greater than or equal to 0.6.
Key: NO

Exercise: Kindly determine if composite z-score recorded for CC(C)NC(=O)[C@@]1(C)c2ccccc2C(=O)N(Cc2ccc(OC(F)(F)F)cc2)[C@H]1c1ccc(CO)cc1 is above or exactly 0.6.
Key: YES

Exercise: Quick check: does COC(=O)c1c(CC[C@@H](CO)NC(=O)N2CCC[C@H]2Cn2cc(C3(O)CCCCC3)nn2)oc(C(C)=O)c1C(=O)OC have composite z-score greater than or equal to 0.6?
Key: NO

Exercise: Is composite z-score for CCCN1C(=O)[C@]2(Cc3ccccc31)N=C(c1ccc(OCCCO)cc1)O[C@@H]2c1ccccc1 at or above 0.6?
Key: YES

Exercise: Check if composite z-score >= 0.6 (inclusive). Item: COc1ccc(CCNC(=O)[C@@H]2c3ccccc3C(=O)N(C3CCCCC3)[C@H]2c2ccc(CO)cc2)cc1
Key: YES

Exercise: Is the recorded value of composite z-score equal to or greater than 0.6 for this molecule? CCOC(=O)C[C@H]1[C@H](OC(=O)Cc2ccc3c(c2)OCO3)[C@@H](NC(=O)c2ccc3ccccc3n2)c2cc(OCCCO)ccc2N1C(=O)c1ccc2ccccc2n1
Key: YES
